B1: TRIM15 (parent)
chain: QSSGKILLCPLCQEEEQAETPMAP

Variants of: B1
Test: protein stability index of a GFP-peptide fusion (GPS, HEK-293T) (PSI 1-6); higher = more stable;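 also: lentivirally expressed fusions sorted by FACS into six bins by GFP to DsRed ratio, PSI derived from sequencing read proportions per bin multiplied by bin number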
Conditions: c terminus: a fixed tail appended
Measured metric: protein stability index
Number only, no unit.

Task item: What value of protein stability index has been recorded for this entry: QSSGKILLCPLCQEEEQAETPMNP [A23N]
Reply: 3.5

Task item: Try this variant next: PSSGKILLCPLCQEEEQAETPMAP [Q1P]
Reply: 2.73

Task item: Try this variant next: QSSGKILLCPLNQEEEQAETPMAP [C12N]
Reply: 4.99

Task item: Try this variant next: QSSGKILLCPLCQGEEQAETPMAP [E14G]
Reply: 3.64

Task item: Try this variant next: QSSGKILLCPLCQEEEQAETPMAY [P24Y]
Reply: 2.68

Task item: Try this variant next: QSSGKILLCPLCNEEEQAETPMAP [Q13N]
Reply: 3.65

Task item: Try this variant next: QSSGKILLCALCQEEEQAETPMAP [P10A]
Reply: 3.35

Task item: Try this variant next: QSSGKILDCPLCQEEEQAETPMAP [L8D]
Reply: 4.91

Task item: Try this variant next: QSSGKILLWPLCQEEEQAETPMAP [C9W]
Reply: 4.24

Task item: Try this variant next: QSSGKILLCPLCQEEEQAETPTAP [M22T]
Reply: 4.48

Task item: Try this variant next: QSSGKILLCQLCQEEEQAETPMAP [P10Q]
Reply: 3.77

Task item: Try this variant next: QSSGKLLLCPLCQEEEQAETPMAP [I6L]
Reply: 3.79

Task item: Try this variant next: QSSGKILLCPLCQVEEQAETPMAP [E14V]
Reply: 2.75

Task item: Try this variant next: NSSGKILLCPLCQEEEQAETPMAP [Q1N]
Reply: 3.06

Task item: Try this variant next: QSSFKILLCPLCQEEEQAETPMAP [G4F]
Reply: 2.49

Task item: Try this variant next: QSSGKILLCPHCQEEEQAETPMAP [L11H]
Reply: 3.68

Task item: Try this variant next: QSSGKILLCPLCQEEEQAETPMAH [P24H]
Reply: 3.88

Task item: Try this variant next: QSSGKILLCPLCQEEEQAETPMAE [P24E]
Reply: 4.29

Values compiled from the supplement of paper PMC10567573.
